System: TGEV
Assay: microbe, parasite or virus in culture
Type: cell-based, strain purdue112 (porcine coronavirus)
Conditions: read-out: TGEV EC50
pEC50: −log10 of the molar value.
Quantity kind: pEC50

Q. Request: pEC50, test system TGEV, entry Cc1cn([C@H]2C[C@H](N=[N+]=[N-])[C@@H](CO)O2)c(=O)[nH]c1=O
A. < 4.00

---

Tested on: VeroE6-EGFP cells
Quantity kind: CC50

Q. Any idea what CC50 was measured for Cc1cn([C@H]2C[C@H](N=[N+]=[N-])[C@@H](CO)O2)c(=O)[nH]c1=O ?
A. > 100 µM

---

Readings of CC50 for the listed molecules
Assay: in vitro
Conditions: African monkey

Smiles str	Quantity kind	Experimental value
NC(=O)c1ncn([C@@H]2O[C@H](CO)[C@@H](O)[C@H]2O)n1	CC50	> 100 µM
O=C(O)C1=CC(=C(c2ccc(O)c(C(=O)O)c2)c2ccc(O)c(C(=O)O)c2)C=CC1=O	CC50	9.19 µM

Consider the additional molecule presented here.
Q. Any idea what CC50 was measured for CC1(C)[C@@H](O[C@H]2O[C@H](C(=O)O)[C@@H](O)[C@H](O)[C@H]2O[C@@H]2O[C@H](C(=O)O)[C@@H](O)[C@H](O)[C@H]2O)CC[C@]2(C)[C@H]3C(=O)C=C4[C@@H]5C[C@@](C)(C(=O)O)CC[C@]5(C)CC[C@@]4(C)[C@]3(C)CC[C@@H]12 ?
A. > 100 µM

---

System: TGEV
Assay: microbe, parasite or virus in culture
Type: cell-based, strain purdue112 (porcine coronavirus)
Settings: Alphacoronavirus 1, 120 h, read-out: TGEV EC50
pEC50: −log10 of the molar value.
Quantity kind: pEC50

Consider the following illustrative entries.
Smiles str	pEC50
O=C(O)C1=CC(=C(c2ccc(O)c(C(=O)O)c2)c2ccc(O)c(C(=O)O)c2)C=CC1=O	< 4.24
NC(=O)c1ncn([C@@H]2O[C@H](CO)[C@@H](O)[C@H]2O)n1	< 4.69

Consider the additional compound presented here.
Q. Any idea what pEC50 was measured for CC1(C)[C@@H](O[C@H]2O[C@H](C(=O)O)[C@@H](O)[C@H](O)[C@H]2O[C@@H]2O[C@H](C(=O)O)[C@@H](O)[C@H](O)[C@H]2O)CC[C@]2(C)[C@H]3C(=O)C=C4[C@@H]5C[C@@](C)(C(=O)O)CC[C@]5(C)CC[C@@]4(C)[C@]3(C)CC[C@@H]12 ?
A. < 4.00

---

Assay: in vitro
Details: pig
Quantity kind: CC50 (µM)
Field: numeric (µM). Do not append units.

Compound	Unit symbol	CC50
NC(=O)c1ncn([C@@H]2O[C@H](CO)[C@@H](O)[C@H]2O)n1 [Ribavirin]	µM	20.2

Q. Any idea what CC50 was measured for O=C(O)C1=CC(=C(c2ccc(O)c(C(=O)O)c2)c2ccc(O)c(C(=O)O)c2)C=CC1=O [ATA, aurintricarboxylic acid] ?
A. 56.9

---

Tested on: LLC-PK1-EGFP cells
Quantity kind: CC50

Q. Request: CC50, test system LLC-PK1-EGFP cells, entry Cc1cn([C@H]2C[C@H](N=[N+]=[N-])[C@@H](CO)O2)c(=O)[nH]c1=O
A. > 100 µM
